Structures can show the parent of a compound that is named as a salt.
Outcome measure: melting point (°C)
Expressed in °C, but write only the number.

Reference set, count: 2
COc1ccc(S(=O)(=O)N2C(=O)C(CCCN3CCNCC3)(c3ccccc3F)c3cc(Cl)c(OC)cc32)c(OC)c1 (stereo not drawn) (as salt: HCl) [compound 16]: 243
COc1cc2c(cc1Cl)C(CCCN1CCNCC1)(c1ccccc1F)C(=O)N2S(=O)(=O)c1ccc(OC)c(OC)c1 (stereo not drawn) (as salt: HCl) [compound 19]: 190

# evaluate next
Prompt: Dear colleague, please send me the reported melting point for COc1cc2c(cc1Cl)C(CCCN1CCN(C)CC1)(c1ccccc1F)C(=O)N2S(=O)(=O)c1ccc(OC)c(OC)c1 (stereo not drawn) when you can.
Response: 90

###

List of IC50 tested on human V2 receptors (Homo sapiens).
Sequence (P30518 whole entry): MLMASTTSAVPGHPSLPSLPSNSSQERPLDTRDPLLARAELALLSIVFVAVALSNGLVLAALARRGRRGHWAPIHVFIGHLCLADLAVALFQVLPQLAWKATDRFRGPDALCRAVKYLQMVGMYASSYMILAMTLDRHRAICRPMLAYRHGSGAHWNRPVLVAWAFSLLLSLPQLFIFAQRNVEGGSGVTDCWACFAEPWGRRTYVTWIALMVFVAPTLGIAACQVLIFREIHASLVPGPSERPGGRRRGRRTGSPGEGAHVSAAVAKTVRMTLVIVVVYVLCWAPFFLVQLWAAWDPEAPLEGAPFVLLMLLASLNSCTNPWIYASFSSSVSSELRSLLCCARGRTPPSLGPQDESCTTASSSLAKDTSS

Guide cases for IC50, answers given:
COc1cc2c(cc1Cl)C(CCCN1CCNCC1)(c1ccccc1F)C(=O)N2S(=O)(=O)c1ccc(O)cc1 (centres unmarked): > 1000 nM
COc1ccc(S(=O)(=O)N2C(=O)C(CCCN3CCNCC3)(c3ccccc3F)c3cc(OC)c(OC)cc32)cc1C (centres unmarked): > 1000 nM
COc1ccc(S(=O)(=O)N2C(=O)C(CCCN3CCNCC3)(c3ccccc3F)c3cc(F)c(OC)cc32)cc1C (centres unmarked): > 1000 nM
COc1cccc(S(=O)(=O)N2C(=O)C(CCCN3CCN(C)CC3)(c3ccccc3F)c3cc(Cl)c(OC)cc32)c1 (centres unmarked): > 1000 nM

Please turn your attention to the following entry.
Prompt: Please report the measured IC50 for COc1cc2c(cc1Cl)C(CCCN1CCNCC1)(c1ccccc1F)C(=O)N2S(=O)(=O)c1ccc(OC(C)C)cc1.Cl (single isomer, unassigned) [Compound No. 17, hydrochloride] tested on human V2 receptors (Homo sapiens).
Response: 450 nM

###

Target: human arginine-vasopressin V1a receptors (Homo sapiens)
Sequence (P37288 whole entry): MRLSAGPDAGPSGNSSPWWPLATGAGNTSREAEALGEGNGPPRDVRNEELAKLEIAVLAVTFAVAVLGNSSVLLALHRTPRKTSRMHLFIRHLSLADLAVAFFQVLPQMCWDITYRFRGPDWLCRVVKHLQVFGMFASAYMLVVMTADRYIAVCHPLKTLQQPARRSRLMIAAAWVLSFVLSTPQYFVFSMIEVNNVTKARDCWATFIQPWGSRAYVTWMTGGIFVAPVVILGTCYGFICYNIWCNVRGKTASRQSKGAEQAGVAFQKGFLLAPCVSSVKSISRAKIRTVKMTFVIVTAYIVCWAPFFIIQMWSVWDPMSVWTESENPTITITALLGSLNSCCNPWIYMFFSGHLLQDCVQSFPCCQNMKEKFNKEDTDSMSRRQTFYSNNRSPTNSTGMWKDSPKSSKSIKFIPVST
Assay: Affinity for human V1a receptors: displacement of [3H]-AVP
Format: binding
Conditions: binding, displacement of [3H]-AVP
Outcome measure: IC50 (nM)
// note: answer is a bare numeric in nM

Prompt: Please list IC50 recorded for the compound COc1ccc(S(=O)(=O)N2C(=O)C(CCCN3CCNCC3)(c3ccccc3F)c3cc(F)c(OC)cc32)cc1C (stereo not drawn)
Response: 8.5

Prompt: Answer with the recorded IC50 for the compound listed here: COc1cc2c(cc1Cl)C(CCCN1CCNCC1)(c1ccccc1F)C(=O)N2S(=O)(=O)c1ccc(O)cc1 (stereo not drawn)
Response: 2.4

Prompt: # return recorded IC50 for input COc1cc2c(cc1Cl)C(CCCN1CCNCC1)(c1ccccc1F)C(=O)N2S(=O)(=O)c1ccc(OC(C)C)cc1.Cl (single isomer, unassigned) [Compound No. 17, hydrochloride]
Response: 2.4

###

IC50: recorded values
Target: human V1b receptors (Homo sapiens)
Sequence (P47901 1-424): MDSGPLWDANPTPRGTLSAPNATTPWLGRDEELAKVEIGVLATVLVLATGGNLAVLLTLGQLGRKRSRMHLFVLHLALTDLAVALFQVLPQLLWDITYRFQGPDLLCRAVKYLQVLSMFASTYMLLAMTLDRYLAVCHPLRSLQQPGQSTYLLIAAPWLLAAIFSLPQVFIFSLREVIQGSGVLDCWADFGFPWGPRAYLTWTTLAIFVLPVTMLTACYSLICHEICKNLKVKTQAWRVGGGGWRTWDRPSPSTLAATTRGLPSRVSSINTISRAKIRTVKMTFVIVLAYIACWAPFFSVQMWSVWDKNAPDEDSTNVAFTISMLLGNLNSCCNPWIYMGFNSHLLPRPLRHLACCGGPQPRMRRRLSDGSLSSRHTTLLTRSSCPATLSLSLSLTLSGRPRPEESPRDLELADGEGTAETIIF
Give the number; µM is assumed, so skip it.

COc1ccc(S(=O)(=O)N2C(=O)C(CCCN3CCNCC3)(c3ccccc3F)c3cc(F)c(OC)cc32)cc1C (stereo not drawn) [compound 107]: 0.14

Shifting focus to the molecule that follows.
Prompt: Provide one value: measured IC50 of COc1ccc(S(=O)(=O)N2C(=O)C(CCCN3CCNCC3)(c3ccccc3F)c3cc(OC)c(OC)cc32)cc1C (stereo not drawn) [compound 108]
Response: 0.32

###

The compounds listed here are annotated with their pIC50.
Target: human uterine oxytocin receptor (Homo sapiens, UniProt P30559)
Sequence (P30559 1-389): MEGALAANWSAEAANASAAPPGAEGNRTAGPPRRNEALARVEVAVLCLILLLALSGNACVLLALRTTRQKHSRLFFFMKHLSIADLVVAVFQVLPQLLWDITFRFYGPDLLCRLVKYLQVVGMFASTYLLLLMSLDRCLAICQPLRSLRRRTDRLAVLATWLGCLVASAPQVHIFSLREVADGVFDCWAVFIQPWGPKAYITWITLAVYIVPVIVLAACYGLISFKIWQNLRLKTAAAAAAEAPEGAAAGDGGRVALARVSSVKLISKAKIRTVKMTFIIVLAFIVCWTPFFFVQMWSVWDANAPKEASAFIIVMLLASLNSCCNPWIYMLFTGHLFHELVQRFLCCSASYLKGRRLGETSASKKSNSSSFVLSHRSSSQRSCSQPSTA
pIC50: −log10 of the molar value.

Observe how each entry below is paired with its result.
COc1ccc(S(=O)(=O)N2C(=O)C(CCCN3CCNCC3)(c3ccccc3F)c3cc(F)c(OC)cc32)cc1C (stereo not drawn): < 6.00
COc1cc2c(cc1Cl)C(CCCN1CCNCC1)(c1ccccc1F)C(=O)N2S(=O)(=O)c1ccc(OC(C)C)cc1.Cl (single isomer, unassigned) [Compound No. 17, hydrochloride]: 6.41

Prompt: Consider the compound COc1ccc(S(=O)(=O)N2C(=O)C(CCCN3CCNCC3)(c3ccccc3F)c3cc(OC)c(OC)cc32)cc1C (stereo not drawn) and give its recorded pIC50.
Response: < 6.00

###

Structures can show the parent of a compound that is named as a salt.
Outcome measure: melting point
Write down the value, and be sure its unit follows.

Consider the reported melting point for these compounds:
COc1cc2c(cc1Cl)C(CCCN1CCNCC1)(c1ccccc1F)C(=O)N2S(=O)(=O)c1ccc(OC(C)C)cc1.Cl (single isomer, unassigned) [Compound No. 17]: 232 °C
COc1cc2c(cc1Cl)C(CCCN1CCN(C)CC1)(c1ccccc1F)C(=O)N2S(=O)(=O)c1ccc(OC(C)C)cc1.Cl (stereo not shown) [Compound No. 13]: 205 °C
COc1cccc(S(=O)(=O)N2C(=O)C(CCCN3CCN(C)CC3)(c3ccccc3F)c3cc(Cl)c(OC)cc32)c1 (stereo not shown) (as salt: HCl) [Compound No. 38]: 147 °C
CCOc1ccc(S(=O)(=O)N2C(=O)C(CCCN3CCNCC3)(c3ccccc3F)c3cc(Cl)c(OC)cc32)cc1C (stereo not shown) (as salt: HCl) [compound 23]: 226 °C
COc1ccc(S(=O)(=O)N2C(=O)C(CCCN3CCNCC3)(c3ccccc3F)c3cc(OC)c(OC)cc32)cc1C (stereo not shown) (as salt: HCl) [compound 108]: 160 °C
COc1ccc(S(=O)(=O)N2C(=O)C(CCCC3CCNCC3)(c3ccccc3F)c3cc(Cl)c(OC)cc32)c(OC)c1.Cl (stereo not shown) [Compound No. 2]: 175 °C
COc1cc2c(cc1C)C(CCCN1CCN(C)CC1)(c1ccccc1F)C(=O)N2S(=O)(=O)c1ccc(OC(C)C)cc1 (stereo not shown): 70 °C
COc1cc2c(cc1Cl)C(CCCN1CCCN(C)CC1)(c1ccccc1F)C(=O)N2S(=O)(=O)c1ccc(OC(C)C)cc1 (stereo not shown) (as salt: HCl): 202 °C
COc1cc2c(cc1F)C(CCCN1CCN(C)CC1)(c1ccccc1F)C(=O)N2S(=O)(=O)c1ccc(OC(C)C)cc1 (stereo not shown): 72 °C
COc1cc2c(cc1Cl)C(CCCN1CCNCC1)(c1ccccc1F)C(=O)N2S(=O)(=O)c1ccc(OC(F)(F)F)cc1 (stereo not shown) (as salt: HCl) [compound 25]: 220 °C

Prompt: Report measured melting point; entry is CCOc1ccc(S(=O)(=O)N2C(=O)C(CCCN3CCOCC3)(c3ccccc3F)c3cc(Cl)c(OC)cc32)cc1OC (stereo not shown)
Response: 153 °C

Prompt: Tell me melting point reported for COc1cc2c(cc1Cl)C(CCCN1CCN(C)CC1)(c1cc(CO)ccc1F)C(=O)N2S(=O)(=O)c1ccc(OC(C)C)cc1 (stereo not shown)
Response: 97 °C

Prompt: Note down melting point recorded for CCN(CC)C(=O)Nc1ccc(S(=O)(=O)N2C(=O)C(CCCN(C)C)(c3ccccc3F)c3cc(C)c(OC)cc32)cc1F (stereo not shown)
Response: 82 °C

###

Structures can show the parent of a compound that is named as a salt.
Class definitions on melting point: bottom bin = under 100 °C, middle bin = from 100 °C up to 200 °C, top bin = 200 °C and over

Prompt: Categorize the following entry: COc1ccc(S(=O)(=O)N2C(=O)C(CCCC3CCNCC3)(c3ccccc3F)c3cc(Cl)c(OC)cc32)c(OC)c1.Cl (centres unmarked) [Compound No. 1]
Response: middle bin

Prompt: For COc1ccc(S(=O)(=O)N2C(=O)C(CCCN3CCNCC3)(c3ccccc3F)c3cc(Cl)c(OC)cc32)cc1C (centres unmarked) (as salt: HCl) , which melting point bin applies?
Response: top bin
